Tested on: H1 or H9 human embryonic stem cells
Assay: Activin A bioassay: differentiation of human embryonic stem cells to definitive endoderm, cell number and SOX17 intensity by high content analysis (96-well, four days)
Format: cell-based
Conditions: supernatant concentration 1x, assay dilution 1:20; control = R&D Sys Activin A 100 ng/ml on same plate
Experimental: Activin A is an important mediator of differentiation in a broad range of cell types. […] A bioassay that measures this differentiation in human embryonic stem cells was adapted in miniaturized format to 96-well plates for screening purposes. […] Imaging was performed using an IN Cell Analyzer 1000 (GE Healthcare) utilizing the 51008bs dichroic for cells stained with Hoechst 33342 and Alexa Fluor 488. […] Averages and standard deviations were calculated for each replicate data set. […]
Mark Criterion met only when Sox 17 Intensity % of control stays strictly below 4%. Values equal to the cut-off are Criterion not met.

MOLECULE | ASSIGNED_CLASS
ACTN71: activin A variant peptide, SEQ ID 72 (protein) GLECDGKVNICCKKQSFGQAKDIGWNDWIIAPSGYHGGGCTGECPSHIAGTSGSSLSFHSTVINHYRMRGHSPFANLKSCCSPTKLRPMSMLYYDDGQNIIKKDIQNMKVEECGCT | Criterion met
ACTN87: activin A variant peptide, SEQ ID 88 (protein) GLECDGKVNICCKKQSFGQAKDIGWNDWIIAPSGYHGGSCSGECPSHIAGTSGSSLSFHSTVINHYRMRGHSPFANLKSCCSPTKLRPMSMLYYDDGQNIIKKDIQNMVVEECGCT | Criterion met
ACTN4: activin A variant peptide, SEQ ID 5 (protein) GLECDGKVNLCCKKQLFVSFKDIGWNDWIIAPSGYHANHCSGLCPSHIAGTSGSSLSFHSTVINHYRMRGHSPFSDMGACCVPTKLRPMSMLYYDDGQNIIKKDIQNMIVEECGCS | Criterion not met
ACTN20: activin A variant peptide, SEQ ID 21 (protein) GLECDGKVNLCCKKQNFVSFKDIGWNDWIIAPSGYHANKCGGLCPSHIAGTSGSSLSFHSTVINHYRMRGHSPFAQMGACCIPTKLRPMSMLYYDDGQNIIKKDIQNMIVEECGCS | Criterion met
ACTN62: activin A variant peptide, SEQ ID 63 (protein) GLECDGKVNICCKKQSFGQAKDIGWNDWIIAPSGYHGGGCTGECPSHIAGTSGSSLSFHSTVINHYRMRGHSPWANLKSCCSPTKLRPMSMLYYDDGQNIIKKDIQNMVVEECGCT | Criterion met
